# TARGET: T. brucei methionyl-tRNA synthetase (TbMetRS) (Trypanosoma brucei brucei, UniProt Q38C91)
# Construct: hexa-histidine tag (3C protease site) (N, cleaved yes); made in house; host or cells: E. coli
# Sequence (Q38C91 1-773): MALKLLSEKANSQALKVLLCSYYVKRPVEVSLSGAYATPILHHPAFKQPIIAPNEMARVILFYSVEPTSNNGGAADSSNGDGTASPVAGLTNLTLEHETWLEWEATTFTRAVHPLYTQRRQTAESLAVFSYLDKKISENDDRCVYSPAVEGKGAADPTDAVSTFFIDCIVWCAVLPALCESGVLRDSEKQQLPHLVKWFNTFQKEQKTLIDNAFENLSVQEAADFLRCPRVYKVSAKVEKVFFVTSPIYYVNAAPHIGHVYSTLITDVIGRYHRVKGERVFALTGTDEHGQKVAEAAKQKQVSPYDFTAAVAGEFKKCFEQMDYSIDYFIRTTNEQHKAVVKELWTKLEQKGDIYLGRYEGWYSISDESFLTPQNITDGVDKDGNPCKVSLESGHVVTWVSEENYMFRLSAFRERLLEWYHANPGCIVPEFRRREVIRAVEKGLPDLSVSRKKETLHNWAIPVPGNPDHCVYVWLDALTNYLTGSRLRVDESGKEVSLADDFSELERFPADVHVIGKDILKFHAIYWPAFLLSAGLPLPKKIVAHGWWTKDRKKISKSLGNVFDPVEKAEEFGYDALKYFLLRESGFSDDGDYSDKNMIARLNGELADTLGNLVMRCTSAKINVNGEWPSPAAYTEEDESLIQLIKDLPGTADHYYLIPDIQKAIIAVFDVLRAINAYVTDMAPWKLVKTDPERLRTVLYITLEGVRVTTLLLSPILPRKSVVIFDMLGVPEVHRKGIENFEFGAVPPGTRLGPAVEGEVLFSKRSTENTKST
# MEASUREMENT NOTES: T. brucei methionyl-tRNA synthetase aminoacylation assay
# Format: biochemical
# TEST CONTEXT: read-out: IC50 (aminoacylation activity of purified TbMetRS)
Recorded log10(IC50) for the following compounds
MEASURED METRIC: log10(IC50) (log10 of the value in nM)

> print(dat)
                               line.notation  measured.metric  number
 1       O=C(NCCCNCc1cc(Cl)cc(Cl)c1)Nc1ccsc1      log10(IC50)    1.45
 2  C=CCOc1c(CC=C)cc(Cl)cc1CNCCCNC(=O)Nc1ccsc1      log10(IC50)    3.09
 3      COc1cc(Cl)cc(CNCCCNC(=O)Nc2ccccc2)c1      log10(IC50)    1.65
 4       O=C(NCCCNCc1cc(Cl)cc(I)c1O)Nc1ccsc1      log10(IC50)    2.50
 5    C=CCc1cc(Cl)cc(CNCCCNC(=O)Nc2ccsc2)c1O      log10(IC50)    2.30
 6          C#Cc1cccc(CNCCCNC(=O)Nc2ccsc2)c1      log10(IC50)    1.98
 7      O=C(NCCCNCc1cc(Cl)cc(Cl)c1)Nc1ccccc1      log10(IC50)    1.76
 8         Cc1sc2ccccc2c1CNCCCNC(=O)Nc1ccsc1      log10(IC50)    3.13
 9          O=C(NCCCNCc1cc(Cl)sc1Cl)Nc1ccsc1      log10(IC50)    2.51
10       COc1cc(Cl)cc(CNCCCNC(=O)Nc2ccsc2)c1      log10(IC50)    1.28
11  C=CCc1cc(Cl)cc(CNCCCNC(=O)Nc2ccsc2)c1OCc1ccccc1      log10(IC50)    3.23
